tested on: COLO 205; assay: NCI tumour cell line growth inhibition, 48 h
The source made the active and inactive calls. No stated cut-off is given here; in the data, active = GI50 up to about 1.1 µM and inactive = higher.
ASSAY_METRIC: GI50

Below are 4 molecules. Give each one its GI50.
1. CC(Br)CN(CC(C)Br)c1ccc2c(c1)Cc1ccccc1-2 (stereo unspecified)
2. COc1nc(OC)nc(Sc2ccc(Sc3ccc(Sc4nc(OC)nc(OC)n4)cc3)cc2)n1
3. CCOC(=O)c1c(C)[nH]c2c1c(CN(C)C)c(O)c1nc(C)c(C)nc12
4. COc1cc([N+](=O)[O-])ccc1NC(=O)c1cccc([N+](=O)[O-])c1O

["14.5 µM (inactive)", "> 100 µM (inactive)", "14.5 µM (inactive)", "16 µM (inactive)"]

Below are 2 molecules. Give each one its GI50.
1. Brc1cc2nn(-c3ccccc3)nc2c2nonc12
2. O=C(NO)NCCCl

> 100 µM (inactive)
> 100 µM (inactive)
